These measurements were taken from ChEMBL document CHEMBL5291721.

assayed target: Alpha-2A adrenergic receptor (Homo sapiens); also: assay procedure not described here
Sequence (P08913 whole entry): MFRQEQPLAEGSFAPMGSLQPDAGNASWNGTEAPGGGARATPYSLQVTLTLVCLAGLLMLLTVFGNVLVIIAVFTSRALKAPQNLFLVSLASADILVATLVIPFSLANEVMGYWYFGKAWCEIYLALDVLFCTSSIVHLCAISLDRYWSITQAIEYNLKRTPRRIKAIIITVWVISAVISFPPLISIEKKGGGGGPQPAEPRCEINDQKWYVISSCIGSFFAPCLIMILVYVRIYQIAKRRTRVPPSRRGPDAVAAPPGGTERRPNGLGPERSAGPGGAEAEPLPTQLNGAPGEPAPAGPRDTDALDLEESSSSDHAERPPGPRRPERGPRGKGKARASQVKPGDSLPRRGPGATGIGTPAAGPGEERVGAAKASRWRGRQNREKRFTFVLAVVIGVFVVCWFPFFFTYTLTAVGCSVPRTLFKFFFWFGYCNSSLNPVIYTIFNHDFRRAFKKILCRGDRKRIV
Assay type: functional, cell-based
Recorded AC50, one value per entry.

Here is how some compounds turned out for AC50.
compound=Nc1ncn([C@H]2C[C@H](O)[C@@H](CO)O2)c(=O)n1 assayed_target="Alpha-2A adrenergic receptor (Homo sapiens)" readout_type=AC50 test_value="> 30 µM"
compound="Cc1cnc(C(=O)NCCc2ccc(S(=O)(=O)NC(=O)NC3CCCCC3)cc2)cn1 [GLIPIZIDE]" assayed_target="Alpha-2A adrenergic receptor (Homo sapiens)" readout_type=AC50 test_value="> 10 µM"
compound=COCC1=C(C(=O)O)N2C(=O)[C@@H](NC(=O)/C(=N\OC)c3csc(N)n3)[C@H]2SC1 assayed_target="Alpha-2A adrenergic receptor (Homo sapiens)" readout_type=AC50 test_value="> 30 µM"
compound="NC1CCN(c2nc3c(cc2F)c(=O)c(C(=O)O)cn3-c2ccc(F)cc2F)C1 (configuration not stated)" assayed_target="Alpha-2A adrenergic receptor (Homo sapiens)" readout_type=AC50 test_value="> 30 µM"
compound="CC(C(=O)O)c1ccc(-c2ccccc2)c(F)c1 (configuration not stated)" assayed_target="Alpha-2A adrenergic receptor (Homo sapiens)" readout_type=AC50 test_value="> 10 µM"

Req: Please give the measured AC50 for this compound: `CN(C)CCC[C@@]1(c2ccc(F)cc2)OCc2cc(C#N)ccc21`
Resp: > 30 µM

Req: Entry to check: `C[C@@H](NCCCc1cccc(C(F)(F)F)c1)c1cccc2ccccc12`
Resp: > 30 µM

Req: Entry to check: `Cc1noc(NS(=O)(=O)c2ccc(N)cc2)c1C`
Resp: > 10 µM

Req: Entry to check: CN(CC1(C)CCCO1)S(=O)(=O)c1ccc(Cl)c(S(N)(=O)=O)c1 (configuration not stated) [MEFRUSIDE]
Resp: > 30 µM

Req: Entry to check: `CCN(CC)CCN1C(=O)CN=C(c2ccccc2F)c2cc(Cl)ccc21`
Resp: > 10 µM

Req: Entry to check: `Cc1cc2cc3c(C)cc(=O)oc3c(C)c2o1`
Resp: > 10 µM

Req: Entry to check: CCN(CC)CCNC(=O)c1cc(S(C)(=O)=O)ccc1OC [TIAPRIDE]
Resp: > 30 µM

Req: Entry to check: `C[C@H](Cc1ccc(O)c(O)c1)[C@@H](C)Cc1ccc(O)c(O)c1`
Resp: > 10 µM

Req: Entry to check: CCOC(=O)O[C@]1(C(=O)OCCl)CC[C@H]2[C@@H]3CCC4=CC(=O)C=C[C@]4(C)[C@H]3[C@@H](O)C[C@@]21C [LOTEPREDNOL ETABONATE]
Resp: > 30 µM

Req: Entry to check: `OC[C@H]1O[C@@](CO)(O[C@H]2O[C@H](CO)[C@@H](O)[C@H](O)[C@H]2O)[C@@H](O)[C@@H]1O`
Resp: > 30 µM

Req: Entry to check: `Cc1ncc2n1-c1ccc(Cl)cc1C(c1ccccc1F)=NC2`
Resp: > 10 µM

Req: Entry to check: CCC(=O)O[C@]1(C(=O)SCF)[C@H](C)C[C@H]2[C@@H]3C[C@H](F)C4=CC(=O)C=C[C@]4(C)[C@@]3(F)[C@@H](O)C[C@@]21C [FLUTICASONE PROPIONATE]
Resp: > 30 µM

###

assayed target: Neuropeptide Y receptor type 1 (Homo sapiens); also: assay procedure not described here
Sequence (P25929 whole entry): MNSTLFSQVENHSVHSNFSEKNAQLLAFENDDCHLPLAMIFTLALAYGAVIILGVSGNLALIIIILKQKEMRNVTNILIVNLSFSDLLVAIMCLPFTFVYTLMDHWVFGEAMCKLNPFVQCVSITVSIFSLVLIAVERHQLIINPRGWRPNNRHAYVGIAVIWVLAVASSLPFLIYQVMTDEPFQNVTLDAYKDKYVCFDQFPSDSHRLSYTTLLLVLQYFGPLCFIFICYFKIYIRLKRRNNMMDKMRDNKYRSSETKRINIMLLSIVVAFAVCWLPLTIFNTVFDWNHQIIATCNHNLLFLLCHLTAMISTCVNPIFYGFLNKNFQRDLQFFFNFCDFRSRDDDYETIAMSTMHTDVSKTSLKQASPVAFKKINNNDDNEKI
condition details: read-out: AC50
readout type: AC50

compound="CC(C(=O)O)c1ccc(CC2CCCC2=O)cc1 (stereo not given)" readout_type=AC50 test_value="> 30 µM"
compound=Clc1ccc2c(N3CCN(CCCN4CCN(c5ccnc6cc(Cl)ccc56)CC4)CC3)ccnc2c1 readout_type=AC50 test_value="> 30 µM"
compound=CCN(CC)CCN1C(=O)CN=C(c2ccccc2F)c2cc(Cl)ccc21 readout_type=AC50 test_value="> 30 µM"
compound="C[C@]12C=CC(=O)N[C@@H]1CC[C@@H]1[C@@H]2CC[C@]2(C)[C@@H](C(=O)Nc3cc(C(F)(F)F)ccc3C(F)(F)F)CC[C@@H]12 [DUTASTERIDE]" readout_type=AC50 test_value="> 10 µM"
compound=Nc1cc(-c2ccncc2)c[nH]c1=O readout_type=AC50 test_value="> 30 µM"

Req: Form field: AC50 recorded for CCCCC(=O)O[C@]1(C(=O)CO)[C@@H](C)C[C@H]2[C@@H]3CCC4=CC(=O)C=C[C@]4(C)[C@@]3(F)[C@@H](O)C[C@@]21C [BETAMETHASONE VALERATE] with Neuropeptide Y receptor type 1 (Homo sapiens) (enter value)
Resp: > 30 µM

Req: Entry to check: CCOC(=O)O[C@]1(C(=O)OCCl)CC[C@H]2[C@@H]3CCC4=CC(=O)C=C[C@]4(C)[C@H]3[C@@H](O)C[C@@]21C [LOTEPREDNOL ETABONATE]
Resp: > 30 µM

Req: Entry to check: CCN(CC)CCNC(=O)c1cc(S(C)(=O)=O)ccc1OC [TIAPRIDE]
Resp: > 30 µM

Req: Entry to check: COc1ccccc1OCCNCC(O)COc1cccc2[nH]c3ccccc3c12 (stereo not given)
Resp: 25.3 µM

Req: Entry to check: OC1(c2ccc(Cl)cc2)c2ccccc2C2=NCCN21 (stereo not given)
Resp: > 30 µM

Req: Entry to check: `C[C@H]1c2cccc(O)c2C(=O)C2=C(O)[C@]3(O)C(=O)C(C(N)=O)=C(O)[C@@H](N(C)C)[C@@H]3[C@@H](O)[C@@H]21`
Resp: > 30 µM
